Origin of the recorded values: patent US20050142106A1

measurement.target: T1, IL-15Rα on F15R-Kit cells (UniProt Q13261 31-267)
T1 construct: whole, on cells
T1 sequence (Q13261 31-267, stated change not applied): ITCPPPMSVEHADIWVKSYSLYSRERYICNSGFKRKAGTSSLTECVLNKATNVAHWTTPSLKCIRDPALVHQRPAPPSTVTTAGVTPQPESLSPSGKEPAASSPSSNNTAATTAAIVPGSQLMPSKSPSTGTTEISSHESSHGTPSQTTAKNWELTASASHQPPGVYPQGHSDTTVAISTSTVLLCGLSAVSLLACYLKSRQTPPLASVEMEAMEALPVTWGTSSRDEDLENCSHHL
test.summary: flow cytometry on F15R-Kit cells
readout.label: binding result

>>> observed_result("IL-2 mutant 2-4 (ligand, not shown: small tags and cut ends, also called N31618-14_; N31610-14_) APTSSSTKKTQLQLEHLLLDLQMILNGISNHKNPRLARMLTFKFYMPEKATELKHLQCLEEELKPLEEALRLAPSKNFHLRPRDLISDVNVIVLELKGSETTFMCEYADETATIVEFLNRWITFSQSIISTLT")
"no binding"
>>> observed_result("IL-2 mutant WE3 (ligand, not shown: small tags and cut ends, also called N31610-25_) APTSSSTKKTQLQLEHLLLDLQMILNGINSYKNPKLTRMLTFKFYMPKKATELKHLQCLEEELKPLEEALNLAPSKNFHLRPRDLISNINVIVLELKGSETTFMCEYADETATIVEFLNRWITFSQSTISTLT")
"no binding"
